Consider the following compounds and their measured residual activity readings.
- studySystem: CLK2 (human) (UniProt P49760)
- Sequence (P49760 whole entry, looked up): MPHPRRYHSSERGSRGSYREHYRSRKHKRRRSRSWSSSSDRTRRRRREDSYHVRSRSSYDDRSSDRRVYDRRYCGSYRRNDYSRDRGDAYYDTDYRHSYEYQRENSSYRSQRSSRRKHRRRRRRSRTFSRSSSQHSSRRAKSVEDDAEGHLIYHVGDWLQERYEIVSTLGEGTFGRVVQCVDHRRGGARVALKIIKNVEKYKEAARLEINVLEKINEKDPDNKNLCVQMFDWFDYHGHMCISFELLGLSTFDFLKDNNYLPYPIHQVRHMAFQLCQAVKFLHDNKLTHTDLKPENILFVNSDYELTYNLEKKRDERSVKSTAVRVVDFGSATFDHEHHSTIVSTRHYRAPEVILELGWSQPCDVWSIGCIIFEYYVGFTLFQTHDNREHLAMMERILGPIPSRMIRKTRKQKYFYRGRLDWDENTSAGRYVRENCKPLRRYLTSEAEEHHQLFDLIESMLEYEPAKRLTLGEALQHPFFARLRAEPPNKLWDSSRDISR
- measurementProtocol: radiometric filter-binding kinase assay, Kinase HotSpot
- testSettings: compound 0.5 µM; ATP 10 µM
measurementLabel: residual activity (%)

INSERT INTO results (compound, measurementlabel, valuereported) VALUES
  ('Nc1nnc2[nH]c3ccccc3nc1-2', 'residual activity', 96.1),
  ('Cn1cnc2cc3c(Nc4cccc(Br)c4)ncnc3cc21', 'residual activity', 93.9),
  ('Oc1ccc(Nc2nc(-c3ccc(Cl)cc3)cs2)cc1', 'residual activity', 102),
  ('CC(C)c1nn(-c2c(Cl)cccc2Cl)c2nc(Cc3ccc(OCCO)cc3)nc(O)c12', 'residual activity', 44),
  ('Cn1nc2c3c(cccc31)C(=O)c1ccccc1-2', 'residual activity', 94.5),
  ('O=C(CCCc1ccc(-c2ccccc2F)cc1)Nc1ccc(O)cc1', 'residual activity', 103),
  ('O=C1NC(=O)C(c2c[nH]c3ccccc23)=C1c1c[nH]c2ccccc12', 'residual activity', 46.7),
  ('COc1cc2ncnc(N3CCN(C(=O)Nc4ccc(Oc5ccccc5)cc4)CC3)c2cc1OC', 'residual activity', 81.3),
  ('O=C1NC(=O)/C(=C\c2ccc3nccnc3c2)S1', 'residual activity', 74),
  ('CN(C)C[C@H]1CCn2c(c(C3=C(c4cn(C)c5ccccc45)C(=O)NC3=O)c3ccccc32)C1', 'residual activity', 85.9),
  ('O=C1Nc2ccccc2/C1=C1\Nc2ccccc2\C1=N/O', 'residual activity', 92.5),
  ('O=C1NC(=O)C(c2cn(CCCO)c3ncccc23)=C1c1cnccn1', 'residual activity', 98.9),
  ('O=C(O)/C=C/c1cc(Br)c(Br)c(Br)c1Br', 'residual activity', 85),
  ('CC(C)[C@H](CO)Nc1nc(Nc2cc(N)cc(Cl)c2)c2ncn(C(C)C)c2n1', 'residual activity', 17.7),
  ('COc1ccc(CNC(=O)Nc2ncc([N+](=O)[O-])s2)cc1', 'residual activity', 97.4),
  ('O=C1Cc2c([nH]c3ccc(Br)cc23)-c2ccccc2N1', 'residual activity', 95.7),
  ('Cc1nc2cc3nc(-c4cccs4)cnc3cc2n1C', 'residual activity', 95.3),
  ('Nc1nccc(-c2c(-c3ccc(F)cc3)ncn2C2CCNCC2)n1', 'residual activity', 99.7),
  ('O=C1Nc2ccccc2/C1=C1/Nc2ccccc2/C1=N\OCCC(O)CO (stereo unspecified)', 'residual activity', 92),
  ('COc1ccc(OC)c2c(=S)c3ccccc3[nH]c12', 'residual activity', 81.2),
  ('COc1cc2ncc(-c3ccccc3)nc2cc1OC', 'residual activity', 87.4);

====

- studySystem: PRKCZ (human) (UniProt Q05513)
- Sequence (Q05513 whole entry, looked up): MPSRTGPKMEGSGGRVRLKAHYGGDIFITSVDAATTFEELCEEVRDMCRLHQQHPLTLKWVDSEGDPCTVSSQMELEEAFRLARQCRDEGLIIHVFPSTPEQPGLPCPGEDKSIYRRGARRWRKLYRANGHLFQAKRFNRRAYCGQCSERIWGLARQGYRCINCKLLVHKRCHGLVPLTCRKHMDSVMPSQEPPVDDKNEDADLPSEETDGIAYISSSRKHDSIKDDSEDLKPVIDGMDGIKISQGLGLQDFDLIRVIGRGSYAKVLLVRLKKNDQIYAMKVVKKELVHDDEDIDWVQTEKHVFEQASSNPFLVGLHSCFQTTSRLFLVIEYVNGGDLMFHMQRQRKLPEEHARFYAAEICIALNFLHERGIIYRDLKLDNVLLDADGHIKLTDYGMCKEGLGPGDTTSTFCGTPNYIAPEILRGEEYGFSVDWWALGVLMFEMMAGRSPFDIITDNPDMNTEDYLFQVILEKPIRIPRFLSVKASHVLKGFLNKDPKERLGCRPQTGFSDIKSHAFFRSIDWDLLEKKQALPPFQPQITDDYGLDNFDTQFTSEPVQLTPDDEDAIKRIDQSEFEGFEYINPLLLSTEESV
- measurementProtocol: radiometric filter-binding kinase assay, Kinase HotSpot
- testSettings: compound 0.5 µM; ATP 10 µM
measurementLabel: residual activity (%)

INSERT INTO measurements (compound, studysystem, measurementlabel, valuereported) VALUES
  ('O=C1Nc2ccccc2/C1=C1\Nc2ccccc2\C1=N/O', 'PRKCZ (human) (UniProt Q05513)', 'residual activity', 95.2),
  ('Nc1nnc2[nH]c3ccccc3nc1-2', 'PRKCZ (human) (UniProt Q05513)', 'residual activity', 106),
  ('CC(=O)O/N=C1\C(=C2\C(=O)Nc3cc(Br)ccc32)Nc2ccccc21', 'PRKCZ (human) (UniProt Q05513)', 'residual activity', 92.2),
  ('O=C1NC(=O)C(c2c[nH]c3ccccc23)=C1c1c[nH]c2ccccc12', 'PRKCZ (human) (UniProt Q05513)', 'residual activity', 96.2),
  ('CN([C@@H](Cc1ccc(OS(=O)(=O)c2cccc3cnccc23)cc1)C(=O)N1CCN(c2ccccc2)CC1)S(=O)(=O)c1cccc2cnccc12', 'PRKCZ (human) (UniProt Q05513)', 'residual activity', 101),
  ('O=C1Cc2c([nH]c3ccc(Br)cc23)-c2ccccc2N1', 'PRKCZ (human) (UniProt Q05513)', 'residual activity', 98.3),
  ('O=C(O)/C=C/c1cc(Br)c(Br)c(Br)c1Br', 'PRKCZ (human) (UniProt Q05513)', 'residual activity', 89.2),
  ('CN(C)C[C@H]1CCn2c(c(C3=C(c4cn(C)c5ccccc45)C(=O)NC3=O)c3ccccc32)C1', 'PRKCZ (human) (UniProt Q05513)', 'residual activity', 31),
  ('Cn1nc2c3c(cccc31)C(=O)c1ccccc1-2', 'PRKCZ (human) (UniProt Q05513)', 'residual activity', 97.9),
  ('COc1cc2ncnc(N3CCN(C(=O)Nc4ccc(Oc5ccccc5)cc4)CC3)c2cc1OC', 'PRKCZ (human) (UniProt Q05513)', 'residual activity', 96),
  ('CC(C)c1nn(-c2c(Cl)cccc2Cl)c2nc(Cc3ccc(OCCO)cc3)nc(O)c12', 'PRKCZ (human) (UniProt Q05513)', 'residual activity', 96.9),
  ('COc1cc2ncc(-c3ccccc3)nc2cc1OC', 'PRKCZ (human) (UniProt Q05513)', 'residual activity', 96.3),
  ('O=C1NC(=O)/C(=C\c2ccc3nccnc3c2)S1', 'PRKCZ (human) (UniProt Q05513)', 'residual activity', 103),
  ('Oc1ccc(Nc2nc(-c3ccc(Cl)cc3)cs2)cc1', 'PRKCZ (human) (UniProt Q05513)', 'residual activity', 105),
  ('CCN(CC)CCCCN1c2ccccc2Oc2ccc(Cl)cc21', 'PRKCZ (human) (UniProt Q05513)', 'residual activity', 105),
  ('O=C1NC(=O)C(c2cn(CCCO)c3ncccc23)=C1c1cnccn1', 'PRKCZ (human) (UniProt Q05513)', 'residual activity', 88.5),
  ('Nc1nccc(-c2c(-c3ccc(F)cc3)ncn2C2CCNCC2)n1', 'PRKCZ (human) (UniProt Q05513)', 'residual activity', 106),
  ('Cn1cnc2cc3c(Nc4cccc(Br)c4)ncnc3cc21', 'PRKCZ (human) (UniProt Q05513)', 'residual activity', 102),
  ('Cc1nc2cc3nc(-c4cccs4)cnc3cc2n1C', 'PRKCZ (human) (UniProt Q05513)', 'residual activity', 95.6),
  ('COc1ccc(OC)c2c(=S)c3ccccc3[nH]c12', 'PRKCZ (human) (UniProt Q05513)', 'residual activity', 99.4),
  ('CCn1cnc2c(Nc3cccc(Cl)c3)nc(N[C@@H]3CCCC[C@@H]3N)nc21', 'PRKCZ (human) (UniProt Q05513)', 'residual activity', 106),
  ('CC(C)[C@H](CO)Nc1nc(Nc2cc(N)cc(Cl)c2)c2ncn(C(C)C)c2n1', 'PRKCZ (human) (UniProt Q05513)', 'residual activity', 101),
  ('O=C1Nc2ccccc2/C1=C1/Nc2ccccc2/C1=N\OCCC(O)CO (configuration not stated)', 'PRKCZ (human) (UniProt Q05513)', 'residual activity', 98.5),
  ('O=C(Nc1cccc(Nc2cc(Nc3cccc(C(F)(F)F)c3)ncn2)c1)C1CC1', 'PRKCZ (human) (UniProt Q05513)', 'residual activity', 104),
  ('Cn1sc(=O)n(Cc2ccccc2)c1=O', 'PRKCZ (human) (UniProt Q05513)', 'residual activity', 101),
  ('O=C(CCCc1ccc(-c2ccccc2F)cc1)Nc1ccc(O)cc1', 'PRKCZ (human) (UniProt Q05513)', 'residual activity', 116),
  ('COc1ccc(CNC(=O)Nc2ncc([N+](=O)[O-])s2)cc1', 'PRKCZ (human) (UniProt Q05513)', 'residual activity', 96.3);
